Source: patent US20170247366A1

- Tested System: rat mGluR5 (Rattus norvegicus, UniProt P31424)
- Sequence (P31424 21-1203): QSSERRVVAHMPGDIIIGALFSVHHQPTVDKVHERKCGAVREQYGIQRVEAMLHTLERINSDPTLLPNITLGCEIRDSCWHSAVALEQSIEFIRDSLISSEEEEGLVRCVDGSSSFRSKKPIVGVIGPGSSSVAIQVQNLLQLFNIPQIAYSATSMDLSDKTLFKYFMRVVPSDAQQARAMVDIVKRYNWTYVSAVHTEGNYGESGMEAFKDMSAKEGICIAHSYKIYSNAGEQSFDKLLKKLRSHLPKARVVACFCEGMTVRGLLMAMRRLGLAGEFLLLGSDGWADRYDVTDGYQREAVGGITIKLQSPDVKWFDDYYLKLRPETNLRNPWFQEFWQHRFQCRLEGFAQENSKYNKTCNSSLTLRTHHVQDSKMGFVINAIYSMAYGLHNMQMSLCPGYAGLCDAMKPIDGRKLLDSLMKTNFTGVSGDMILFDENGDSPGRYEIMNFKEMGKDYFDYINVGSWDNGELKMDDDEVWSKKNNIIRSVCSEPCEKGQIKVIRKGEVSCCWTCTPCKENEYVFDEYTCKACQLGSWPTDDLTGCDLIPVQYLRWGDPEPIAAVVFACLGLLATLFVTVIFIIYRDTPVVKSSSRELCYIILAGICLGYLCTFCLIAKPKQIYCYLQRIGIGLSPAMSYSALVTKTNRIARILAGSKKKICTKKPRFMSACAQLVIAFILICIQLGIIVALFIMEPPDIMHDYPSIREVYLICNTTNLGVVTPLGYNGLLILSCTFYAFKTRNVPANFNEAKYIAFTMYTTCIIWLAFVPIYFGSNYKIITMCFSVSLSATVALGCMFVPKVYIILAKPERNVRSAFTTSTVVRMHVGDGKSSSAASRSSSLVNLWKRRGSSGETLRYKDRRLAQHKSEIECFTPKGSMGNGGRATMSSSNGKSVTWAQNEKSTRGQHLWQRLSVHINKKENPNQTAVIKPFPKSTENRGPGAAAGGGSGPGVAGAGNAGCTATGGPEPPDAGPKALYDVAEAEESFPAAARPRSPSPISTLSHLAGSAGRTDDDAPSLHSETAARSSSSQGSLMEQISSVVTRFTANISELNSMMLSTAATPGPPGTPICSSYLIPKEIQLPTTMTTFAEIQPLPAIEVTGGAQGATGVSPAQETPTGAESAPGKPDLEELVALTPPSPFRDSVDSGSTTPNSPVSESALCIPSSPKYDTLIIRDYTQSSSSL
- Assay Remarks: mGluR5 calcium flux assay in HEK 293A cells, negative allosteric modulation of glutamate EC80 response
- Setup Conditions: HEK cells transfected with rat mGluR5; glutamate EC80; ± is standard error of at least three experiments
pIC50: −log10 of the molar value.
Readout Name: pIC50

Examples with their reported pIC50 follow.
| Molecule | pIC50 |
| --- | --- |
| CC(=O)N1CC(Oc2cc(C)nc(C(=O)Nc3nc(C)cs3)c2)C1 | 6.41 |
| COC[C@H](C)Oc1cc(C)nc(C(=O)Nc2nc(C)cs2)c1 | 6.03 |
| COc1cccc(NC(=O)c2cc(OC3COC3)cc(C)n2)n1 | 5.98 |
| COCCOCCOc1cc(C)nc(C(=O)Nc2nc(C)cs2)c1 | 6.02 |

I: CCOCCOc1cc(C)nc(C(=O)Nc2ccccn2)c1
II: Cc1cc(OC[C@@H]2CCOC2)cc(C(=O)Nc2ccc(F)cn2)n1
III: Cc1cc(OC[C@@H]2CCOC2)cc(C(=O)Nc2ccccn2)n1
IV: Cc1cc(OC2CCSC2)cc(C(=O)Nc2ccccn2)n1 (stereo not shown)
Query: Exam item: list the entries in increasing order of pIC50. Answer with the labels in sequence, matching the requested order.
Result: I, II, III, IV
(I: 6.07, II: 6.33, III: 6.78, IV: 7.41)
